# procedure-summary: In vivo pharmacokinetic experiment on cynomolgus monkeys
# assay-setup: both sexes, cynomolgus monkey, plasma, po, intragastric, 15 mg/kg, read-out: Half-life T1/2 (converted)
recorded-metric: half-life (min)
Express it in min; write the number only.

Noted for O=C(O)[C@@H](Cc1cccc(CN(CCOc2cccc(C[C@H](C(=O)O)[C@H]3CCNC3)c2)Cc2cccc(C[C@H](C(=O)O)[C@H]3CCNC3)c2)c1)[C@H]1CCNC1 [Compound 6] : its half-life reads 996

----------
# procedure-summary: In vivo pharmacokinetic experiment on cynomolgus monkeys
# assay-setup: intragastric, 15 mg/kg
recorded-metric: Unit-dose area under curve AUC/D

Noted for O=C(O)[C@@H](Cc1cccc(CN(CCOc2cccc(C[C@H](C(=O)O)[C@H]3CCNC3)c2)Cc2cccc(C[C@H](C(=O)O)[C@H]3CCNC3)c2)c1)[C@H]1CCNC1 : its Unit-dose area under curve AUC/D reads 2200 ng·h/mL per mg/kg

----------
# procedure-summary: In vivo pharmacokinetic experiment on cynomolgus monkeys
# assay-setup: intragastric, 50 mg/kg
recorded-metric: Unit-dose area under curve AUC/D (ng·h/mL per mg/kg)
Express it in ng·h/mL per mg/kg; write the number only.

Noted for O=C(O)[C@@H](Cc1cccc(CN(Cc2cccc(C[C@H](C(=O)O)[C@H]3CCNC3)c2)Cc2cccc(C[C@H](C(=O)O)[C@H]3CCNC3)c2)c1)[C@H]1CCNC1 [Reference 1, reference compound] : its Unit-dose area under curve AUC/D reads 443

----------
# procedure-summary: In vivo pharmacokinetic experiment on beagles
# assay-setup: male, beagle, dog, plasma, po, intragastric, 10 mg/kg, read-out: Area under curve AUC
recorded-metric: AUC (ng·h/mL)
Express it in ng·h/mL; write the number only.

Noted for O=C(O)[C@@H](Cc1cccc(CN(Cc2cccc(C[C@H](C(=O)O)[C@H]3CCNC3)c2)Cc2cccc(C[C@H](C(=O)O)[C@H]3CCNC3)c2)c1)[C@H]1CCNC1 [Reference 1, reference compound] : its AUC reads 23000

----------
# measured-on: Apo(a) and ApoB protein assembly (Homo sapiens (Human), UniProt P08519)
# Sequence (P08519 20-2040): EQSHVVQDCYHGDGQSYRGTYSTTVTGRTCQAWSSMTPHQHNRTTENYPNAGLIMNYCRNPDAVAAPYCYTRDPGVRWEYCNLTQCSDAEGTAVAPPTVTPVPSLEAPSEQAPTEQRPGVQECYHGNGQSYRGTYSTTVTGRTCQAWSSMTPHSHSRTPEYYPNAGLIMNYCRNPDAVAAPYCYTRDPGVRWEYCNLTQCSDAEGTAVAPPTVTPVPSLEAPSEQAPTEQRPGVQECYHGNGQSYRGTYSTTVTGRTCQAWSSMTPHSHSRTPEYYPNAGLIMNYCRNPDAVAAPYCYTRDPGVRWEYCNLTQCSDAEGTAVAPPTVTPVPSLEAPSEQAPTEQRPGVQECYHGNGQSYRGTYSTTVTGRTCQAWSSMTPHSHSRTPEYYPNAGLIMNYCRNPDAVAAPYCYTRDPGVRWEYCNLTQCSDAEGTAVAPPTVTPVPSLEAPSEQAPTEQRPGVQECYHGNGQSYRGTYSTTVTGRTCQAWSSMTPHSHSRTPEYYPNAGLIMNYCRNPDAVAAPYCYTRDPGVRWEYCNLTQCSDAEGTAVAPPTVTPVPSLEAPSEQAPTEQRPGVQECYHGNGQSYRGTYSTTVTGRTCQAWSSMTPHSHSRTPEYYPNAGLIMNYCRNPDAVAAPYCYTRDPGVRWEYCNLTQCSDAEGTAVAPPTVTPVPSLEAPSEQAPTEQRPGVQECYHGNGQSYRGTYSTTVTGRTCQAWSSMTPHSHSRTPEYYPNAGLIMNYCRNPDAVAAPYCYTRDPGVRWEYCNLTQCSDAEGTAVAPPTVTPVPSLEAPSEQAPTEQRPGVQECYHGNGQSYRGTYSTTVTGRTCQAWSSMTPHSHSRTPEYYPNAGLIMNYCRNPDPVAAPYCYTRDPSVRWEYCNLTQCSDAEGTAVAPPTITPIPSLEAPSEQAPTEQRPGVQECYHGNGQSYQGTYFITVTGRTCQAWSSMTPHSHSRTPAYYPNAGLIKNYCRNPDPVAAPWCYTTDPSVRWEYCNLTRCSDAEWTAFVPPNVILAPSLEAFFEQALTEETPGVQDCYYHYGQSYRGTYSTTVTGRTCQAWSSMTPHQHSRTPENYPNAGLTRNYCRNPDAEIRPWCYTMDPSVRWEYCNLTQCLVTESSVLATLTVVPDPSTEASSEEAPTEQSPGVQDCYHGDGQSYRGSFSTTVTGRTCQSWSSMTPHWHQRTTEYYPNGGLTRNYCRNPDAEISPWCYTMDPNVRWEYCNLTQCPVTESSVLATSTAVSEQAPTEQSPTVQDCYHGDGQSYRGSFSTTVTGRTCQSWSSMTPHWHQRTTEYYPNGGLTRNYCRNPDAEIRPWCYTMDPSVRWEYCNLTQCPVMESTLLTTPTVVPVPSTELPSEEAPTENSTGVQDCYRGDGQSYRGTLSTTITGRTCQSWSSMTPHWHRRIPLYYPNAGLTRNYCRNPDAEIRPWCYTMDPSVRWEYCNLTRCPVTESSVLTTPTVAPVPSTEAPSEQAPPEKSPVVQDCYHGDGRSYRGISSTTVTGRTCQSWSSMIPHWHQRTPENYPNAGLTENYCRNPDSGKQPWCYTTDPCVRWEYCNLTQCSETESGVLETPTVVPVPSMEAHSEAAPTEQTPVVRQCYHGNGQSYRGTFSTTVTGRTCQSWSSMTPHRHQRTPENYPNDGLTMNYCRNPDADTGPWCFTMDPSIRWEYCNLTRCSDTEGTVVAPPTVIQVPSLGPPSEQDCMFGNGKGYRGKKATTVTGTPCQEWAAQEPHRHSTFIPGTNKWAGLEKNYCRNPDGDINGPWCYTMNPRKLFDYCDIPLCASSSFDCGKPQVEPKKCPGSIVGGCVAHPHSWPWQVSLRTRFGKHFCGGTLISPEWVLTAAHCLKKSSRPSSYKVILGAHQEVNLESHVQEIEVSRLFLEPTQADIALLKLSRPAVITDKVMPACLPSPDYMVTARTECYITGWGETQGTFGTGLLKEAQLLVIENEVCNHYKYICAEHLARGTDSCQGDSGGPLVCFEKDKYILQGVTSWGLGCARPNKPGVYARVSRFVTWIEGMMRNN
# procedure-summary: Test for activity of compounds in inhibiting Lp(a) assembly (double antibody ELISA)
# assay-setup: plasma from human transgenic hApo(a) and hApoB mice; 37° C., 2 h; ELISA absorbance at 450 nm
recorded-metric: IC50 (nM)
Express it in nM; write the number only.

Noted for O=C(O)[C@@H](Cc1cccc(CN(CCOc2cccc(C[C@H](C(=O)O)[C@H]3CCNC3)c2)Cc2cccc(C[C@H](C(=O)O)[C@H]3CCNC3)c2)c1)[C@H]1CCNC1 [Compound 6] : its IC50 reads 0.41

Noted for O=C(O)[C@@H](Cc1cccc(CN(CCNc2cccc(C[C@H](C(=O)O)[C@H]3CCNC3)c2)Cc2cccc(C[C@H](C(=O)O)[C@H]3CCNC3)c2)c1)[C@H]1CCNC1 [Compound 7] : its IC50 reads 0.76

Noted for O=C(O)[C@@H](Cc1cccc(CN(CCN(Cc2cccc(C[C@H](C(=O)O)[C@H]3CCNC3)c2)Cc2cccc(C[C@H](C(=O)O)[C@H]3CCNC3)c2)Cc2cccc(C[C@H](C(=O)O)[C@H]3CCNC3)c2)c1)[C@H]1CCNC1 [Compound 4] : its IC50 reads 0.85

Noted for O=C(O)[C@@H](Cc1cccc(CN(Cc2cccc(C[C@H](C(=O)O)C3CCNCC3)c2)Cc2cccc(C[C@H](C(=O)O)C3CCNCC3)c2)c1)C1CCNCC1 [Compound 2] : its IC50 reads 1.7

----------
# procedure-summary: In vivo pharmacokinetic experiment on cynomolgus monkeys
# assay-setup: both sexes, cynomolgus monkey, plasma, po, intragastric, 50 mg/kg, read-out: Area under curve AUC
recorded-metric: AUC (ng·h/mL)
Express it in ng·h/mL; write the number only.

Noted for O=C(O)[C@@H](Cc1cccc(CN(Cc2cccc(C[C@H](C(=O)O)[C@H]3CCNC3)c2)Cc2cccc(C[C@H](C(=O)O)[C@H]3CCNC3)c2)c1)[C@H]1CCNC1 [Reference 1, reference compound] : its AUC reads 22200

Origin of the recorded values: patent US20250042847A1
